test system: c-Abl (mouse); test: phosphorylation enrichment, bacterial display (enrichment ratio); higher = better substrate or ligand; peptides without Tyr show the background;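 also: 11-residue human phosphosite peptides and single-mutation variants displayed on the E. coli surface, counted by deep sequencing, each peptide's frequency after selection divided by its frequency in the unselected input library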;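 also: frequency after pTyr selection over input frequency; kinase dosed for 20-30% of maximal phosphorylation in three min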
Quick rule: phosphorylation enrichment of at least 0.7 means true, below that means false.

# example entries with known answers
{"sequence-input": "GHEFIYVDRMQ [PDGFRB_Y581_P584R_YF]", "category": "false"}
{"sequence-input": "YCIDHYLGKEM [G6PD_Y202_R198C]", "category": "false"}
{"sequence-input": "EVVGRYSGHNA [MLH1_Y183_V185G]", "category": "false"}
{"sequence-input": "KDHLDYKYQPR [SOX9_Y172_P170L]", "category": "false"}
{"sequence-input": "TVLWWYTGTRP [UGT1A1_Y337_R336W]", "category": "false"}
{"sequence-input": "PLFRKYWPNHI [GREB1L_Y1560_YF]", "category": "false"}
{"sequence-input": "KLVRLYAVVTR [LYN_Y306]", "category": "true"}
{"sequence-input": "RGGWAYVLHPT [TRMT61A_Y67_V66A]", "category": "true"}
{"sequence-input": "EKNANYKEGTF [CLRN1_Y171_I168N_YF]", "category": "false"}
{"sequence-input": "TVHCDYLNIPH [TAF1L_Y1385]", "category": "false"}

**Q:** Record GLSSAYGDLTS [KRT8_Y427_G429D] ; criterion: phosphorylation enrichment no lower than 0.7. Met?
**A:** false

**Q:** Record AAVDTVCRHNY [HLA-DRB1_Y107_Y107V] ; criterion: phosphorylation enrichment no lower than 0.7. Met?
**A:** true

**Q:** Record TISPYYCQSLF [CRYAA_Y48_R49C] ; criterion: phosphorylation enrichment no lower than 0.7. Met?
**A:** true

**Q:** Record AIDDKYSRREE [SART1_Y685] ; criterion: phosphorylation enrichment no lower than 0.7. Met?
**A:** false

**Q:** Record ASNNPYFRDQA [RPGRIP1_Y846] ; criterion: phosphorylation enrichment no lower than 0.7. Met?
**A:** false

**Q:** Record CKRQFYLFKGK [RSPO4_Y112_YF] ; criterion: phosphorylation enrichment no lower than 0.7. Met?
**A:** false

**Q:** Record GSESDYIVMPN [SCARB1_Y133] ; criterion: phosphorylation enrichment no lower than 0.7. Met?
**A:** true

**Q:** Record LKLKAYRFSIS [LCT_Y974_V971L] ; criterion: phosphorylation enrichment no lower than 0.7. Met?
**A:** true

**Q:** Record AGIKAYQSCLQ [ADGRA2_Y377_T375K] ; criterion: phosphorylation enrichment no lower than 0.7. Met?
**A:** true

###

Please respond with reported phosphorylation enrichment for every item in the list.
target: Hck (UniProt P08631); assay: phosphorylation enrichment, bacterial display (enrichment ratio); higher = better substrate or ligand; peptides without Tyr show the background
Sequence (P08631 whole entry, looked up): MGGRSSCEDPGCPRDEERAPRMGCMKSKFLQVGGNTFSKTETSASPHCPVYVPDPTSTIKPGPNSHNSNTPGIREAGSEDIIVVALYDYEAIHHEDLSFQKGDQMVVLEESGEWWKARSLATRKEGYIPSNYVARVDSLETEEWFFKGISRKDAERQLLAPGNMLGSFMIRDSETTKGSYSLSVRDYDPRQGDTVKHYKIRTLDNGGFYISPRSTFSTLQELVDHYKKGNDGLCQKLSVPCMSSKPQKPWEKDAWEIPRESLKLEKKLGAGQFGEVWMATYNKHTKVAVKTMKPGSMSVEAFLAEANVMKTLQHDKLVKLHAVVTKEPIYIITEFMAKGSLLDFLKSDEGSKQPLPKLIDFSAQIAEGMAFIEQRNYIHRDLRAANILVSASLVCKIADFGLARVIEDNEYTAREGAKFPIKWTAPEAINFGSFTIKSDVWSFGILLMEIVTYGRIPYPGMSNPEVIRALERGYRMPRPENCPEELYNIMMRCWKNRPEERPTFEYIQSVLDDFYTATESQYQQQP
Give bare numbers.

Working through the 7 sequences below one at a time, give phosphorylation enrichment for each.
1. KQFWRYFPGNL [SLC25A4_Y112_A114P]
2. ENRKYYKDLKE [PURA_Y156_M157K]
3. DHYNQYEQQKM [CHD7_Y75]
4. SARSAYQEAMD [SFN_Y151]
5. VVLVSYVPFSQ [SH2B1_Y624_S627F]
6. CGTPDNIAPEI [PRKCG_Y521_Y521N]
7. CTTIDYNYMCN [TP53_Y234_H233D]

**A:**
[0.524, 0.295, 0.434, 0.445, 0.648, 0.609, 0.598]

Working through the 3 sequences below one at a time, give phosphorylation enrichment for each.
1. LVMFIDAIFGM [SCN1A_Y1684_Y1684D]
2. AGQEDYDRLRP [CDC42_Y64]
3. KDQPDYKYQPR [SOX9_Y172_H169Q]

**A:**
1.38
0.785
0.378

Working through the 4 sequences below one at a time, give phosphorylation enrichment for each.
1. LEQDEYALHSH [HADHB_Y244_R247H]
2. IVRSLYEDLED [VHL_Y185]
3. KNDSIYVVKGN [KIT_Y823_N822I]
4. AMCVRYDGVEV [ADAMTSL2_Y594]

**A:**
0.598
0.564
1.35
0.644
